Each recorded value in this set is attributed to ChEMBL document CHEMBL5500383.

Tested on: HCT-116
Assay text: Cytotoxicity against human HCT-116 cells assessed as reduction in cell viability incubated for 72 hrs by MTT assay
Type: functional, cell-based
Condition info: HCT-116, 72 h

[
  {
    "Query smiles": "CCOC(=O)c1ccc(NC(=O)c2ccc(NC(=O)CN3C(=O)S/C(=C\\c4ccccc4)C3=O)cc2)cc1",
    "IC50": "8.99 µM"
  }
]

###

System: HepG2
Assay text: Antiproliferative activity against human HepG2 cells assessed as reduction in cell growth incubated for 24 hrs by MTT assay
Type: functional, cell-based
Condition info: HepG2, 24 h
Reported metric: IC50 (µM)

[
  {
    "Query smiles": "CCn1c(SCC(=O)Nc2ccc(/C(C)=N/O)cc2)nc2ccccc2c1=O",
    "Test value": 3.97
  }
]

###

pIC50 values, listed per item
Assayed system: Vascular endothelial growth factor receptor 2 (Homo sapiens, UniProt P35968)
Sequence (P35968 whole entry): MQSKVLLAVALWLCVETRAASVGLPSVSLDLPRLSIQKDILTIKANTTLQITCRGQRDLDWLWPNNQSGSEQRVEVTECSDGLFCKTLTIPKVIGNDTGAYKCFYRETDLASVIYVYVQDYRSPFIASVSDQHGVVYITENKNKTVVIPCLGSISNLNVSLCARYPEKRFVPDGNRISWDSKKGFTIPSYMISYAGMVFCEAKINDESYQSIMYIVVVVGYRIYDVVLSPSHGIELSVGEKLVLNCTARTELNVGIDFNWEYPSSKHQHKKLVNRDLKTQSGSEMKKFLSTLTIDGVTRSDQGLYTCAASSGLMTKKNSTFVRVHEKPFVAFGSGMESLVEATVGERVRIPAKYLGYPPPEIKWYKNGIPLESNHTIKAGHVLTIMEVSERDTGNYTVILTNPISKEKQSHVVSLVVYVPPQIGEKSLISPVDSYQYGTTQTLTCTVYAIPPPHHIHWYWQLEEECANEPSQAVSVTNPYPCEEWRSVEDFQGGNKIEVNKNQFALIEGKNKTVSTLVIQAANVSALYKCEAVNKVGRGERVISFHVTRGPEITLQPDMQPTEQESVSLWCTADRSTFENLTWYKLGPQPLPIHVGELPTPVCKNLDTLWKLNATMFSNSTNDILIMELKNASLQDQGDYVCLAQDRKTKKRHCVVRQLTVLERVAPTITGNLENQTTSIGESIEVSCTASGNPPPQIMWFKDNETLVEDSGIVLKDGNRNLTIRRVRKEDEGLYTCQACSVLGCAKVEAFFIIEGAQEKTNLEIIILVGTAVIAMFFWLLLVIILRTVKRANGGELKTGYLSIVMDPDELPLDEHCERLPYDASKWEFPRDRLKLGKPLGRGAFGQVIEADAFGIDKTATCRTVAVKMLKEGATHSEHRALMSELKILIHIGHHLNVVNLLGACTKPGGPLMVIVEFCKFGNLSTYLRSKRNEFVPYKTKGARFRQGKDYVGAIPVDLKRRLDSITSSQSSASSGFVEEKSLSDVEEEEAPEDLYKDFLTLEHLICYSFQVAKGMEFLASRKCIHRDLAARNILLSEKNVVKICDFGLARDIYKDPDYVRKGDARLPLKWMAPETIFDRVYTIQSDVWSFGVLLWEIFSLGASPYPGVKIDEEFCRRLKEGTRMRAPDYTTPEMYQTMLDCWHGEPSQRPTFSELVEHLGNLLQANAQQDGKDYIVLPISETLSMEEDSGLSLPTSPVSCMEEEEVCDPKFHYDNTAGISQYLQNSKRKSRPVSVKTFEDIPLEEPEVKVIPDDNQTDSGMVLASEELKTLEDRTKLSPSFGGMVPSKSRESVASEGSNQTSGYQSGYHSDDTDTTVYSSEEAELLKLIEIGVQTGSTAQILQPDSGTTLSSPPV
Assay text: Inhibition of human recombinant VEGFR2 using biotinylated poly-GluTyr (4:1) as susbtrate measured for 1 hr by ELISA method
pIC50: −log10 of the molar value.

[
  {
    "Query smiles": "Cc1cc(C)nc(NS(=O)(=O)c2ccc(NN=C3C(=O)NNC3=O)cc2)n1",
    "pIC50": 6.85
  },
  {
    "Query smiles": "CCOC(=O)/C(=N\\Nc1ccc(S(=O)(=O)Nc2nc(C)cc(C)n2)cc1)C(=O)NNc1ccccc1",
    "pIC50": 6.82
  },
  {
    "Query smiles": "Cc1cc(NS(=O)(=O)c2ccc(NN=C3C(=O)NNC3=O)cc2)no1",
    "pIC50": 6.82
  }
]

###

Tested on: HepG2
Assay text: Cytotoxicity against human HepG2 cells assessed as reduction in cell viability by SRB assay
Format: functional, cell-based
Reported metric: IC50 (µM)

[
  {
    "Query smiles": "O=C(N/N=C/c1ccc(Cl)cc1)c1ccc(Nc2ncnc3sc4c(c23)CCCC4)cc1",
    "Assayed system": "HepG2",
    "Test value": 4.1
  }
]

###

Assayed system: Vascular endothelial growth factor receptor 2 (Homo sapiens, UniProt P35968)
Assay text: Inhibition of human VEGFR-2 by ELISA method
Reported metric: IC50 (µM)

[
  {
    "Query smiles": "C/C(=N\\NC(=O)c1ccccc1O)c1ccc(NC(=O)CSc2nc3ccccc3c(=O)n2-c2ccccc2)cc1",
    "Units of measure": "µM",
    "Test value": 0.34
  },
  {
    "Query smiles": "CCn1c(SCC(=O)Nc2ccc(/C(C)=N/O)cc2)nc2ccccc2c1=O",
    "Units of measure": "µM",
    "Test value": 2.5
  }
]

###

Test system: PC-3
Assay text: Antiproliferative activity against human PC-3 cells
Format: functional, cell-based

[
  {
    "Query smiles": "O=C(CSc1nc2ccccc2c(=O)n1-c1ccc(Cl)cc1)Nc1ccc(-c2nc3ccccc3[nH]2)cc1",
    "IC50 / nM": 100
  }
]

###

Assay text: Antiproliferative actiivty against human WI-38 cells assessed as reduction in cell viability by MTT assay
Format: toxicity, cell-based

[
  {
    "Query smiles": "O=C(c1ccccc1)n1cc(-c2nc3cc(Cl)ccc3[nH]c2=O)c(=O)[nH]1",
    "IC50 (µM)": 99.2
  }
]

###

Test system: PC-3
Assay text: Cytotoxicity against human PC-3 cells assessed as reduction in cell viability incubated for 72 hrs by MTT assay
Format: functional, cell-based
Condition info: PC-3, 72 h

[
  {
    "Query smiles": "COc1cc(-c2cc(-c3ccc4ccccc4c3)nc(NN)c2C#N)ccc1O",
    "IC50 / nM": 55
  }
]

###

Assay text: Tmax in human at 140 mg
Format: ADME

[
  {
    "Compound": "COc1cc2nccc(Oc3ccc(NC(=O)C4(C(=O)Nc5ccc(F)cc5)CC4)cc3)c2cc1OC [CABOZANTINIB]",
    "Tmax (h)": 4
  }
]

###

IC50 at 72 h values, listed per item
Assay text: Cytotoxicity against HUVEC cells assessed as cell growth inhibition incubated for 72 hrs by MTT assay
Assay type: toxicity, cell-based
Condition info: human
Reported metric: IC50 at 72 h (µM)

[
  {
    "Query smiles": "COc1ccc(-c2cc3c(ccn4nc(-c5cccnc5)nc34)o2)cc1",
    "Units of measure": "µM",
    "Test value": 17.4
  },
  {
    "Query smiles": "COc1ccc(-c2nc3c4cc(-c5ccc(OC)cc5)oc4ccn3n2)cc1",
    "Units of measure": "µM",
    "Test value": 22.6
  }
]

###

Assayed system: Vascular endothelial growth factor receptor 2 (Homo sapiens, UniProt P35968)
Assay text: Inhibition of VEGFR2 (unknown origin) by FRET based assay
pIC50: −log10 of the molar value.

[
  {
    "Query smiles": "O=C(CN1CCN(c2cc(=O)[nH]c3c(-c4ccccc4)cccc23)CC1)Nc1ccc(F)cc1",
    "Assayed system": "Vascular endothelial growth factor receptor 2 (Homo sapiens, UniProt P35968)",
    "pIC50": 7.41
  }
]

###

Tested on: MCF7
Assay text: Antiproliferative activity against human MCF7 cells assessed as reduction in cell viability
Type: functional, cell-based

[
  {
    "Query smiles": "COCCOCCOCCOCCOCCOC(=O)c1cc(C(=O)OCCOCCOCCOCCOCCOC)cc(-n2cc(Cn3ncc4ccccc4c3=O)nn2)c1",
    "IC50 (µM)": 8.84
  }
]

###

Tested on: MCF7
Assay text: Cytotoxicity against human MCF7 cells assessed as reduction in cell viability by SRB assay
Type: functional, cell-based
Reported metric: IC50 (µM)

[
  {
    "Query smiles": "O=C(N/N=C/c1ccc(Cl)cc1)c1ccc(Nc2ncnc3sc4c(c23)CCCC4)cc1",
    "Test value": 10.3
  }
]

###

Tested on: MCF7
Assay text: Cytotoxicity against human MCF7 cells assessed as reduction in cell viability measured after 72 hrs by MTT assay
Format: functional, cell-based
Condition info: MCF7, 72 h
pIC50: −log10 of the molar value.

[
  {
    "Query smiles": "CCOC(=O)/C(=N\\Nc1ccc(S(=O)(=O)Nc2nc(C)cc(C)n2)cc1)C(=O)NNc1ccccc1",
    "pIC50": 4.86
  },
  {
    "Query smiles": "Cc1cc(C)nc(NS(=O)(=O)c2ccc(NN=C3C(=O)NNC3=O)cc2)n1",
    "pIC50": 4.98
  },
  {
    "Query smiles": "Cc1cc(NS(=O)(=O)c2ccc(NN=C3C(=O)NNC3=O)cc2)no1",
    "pIC50": 4.84
  }
]

###

Assayed system: Serine/threonine-protein kinase B-raf (Homo sapiens, UniProt P15056)
Sequence (P15056 whole entry): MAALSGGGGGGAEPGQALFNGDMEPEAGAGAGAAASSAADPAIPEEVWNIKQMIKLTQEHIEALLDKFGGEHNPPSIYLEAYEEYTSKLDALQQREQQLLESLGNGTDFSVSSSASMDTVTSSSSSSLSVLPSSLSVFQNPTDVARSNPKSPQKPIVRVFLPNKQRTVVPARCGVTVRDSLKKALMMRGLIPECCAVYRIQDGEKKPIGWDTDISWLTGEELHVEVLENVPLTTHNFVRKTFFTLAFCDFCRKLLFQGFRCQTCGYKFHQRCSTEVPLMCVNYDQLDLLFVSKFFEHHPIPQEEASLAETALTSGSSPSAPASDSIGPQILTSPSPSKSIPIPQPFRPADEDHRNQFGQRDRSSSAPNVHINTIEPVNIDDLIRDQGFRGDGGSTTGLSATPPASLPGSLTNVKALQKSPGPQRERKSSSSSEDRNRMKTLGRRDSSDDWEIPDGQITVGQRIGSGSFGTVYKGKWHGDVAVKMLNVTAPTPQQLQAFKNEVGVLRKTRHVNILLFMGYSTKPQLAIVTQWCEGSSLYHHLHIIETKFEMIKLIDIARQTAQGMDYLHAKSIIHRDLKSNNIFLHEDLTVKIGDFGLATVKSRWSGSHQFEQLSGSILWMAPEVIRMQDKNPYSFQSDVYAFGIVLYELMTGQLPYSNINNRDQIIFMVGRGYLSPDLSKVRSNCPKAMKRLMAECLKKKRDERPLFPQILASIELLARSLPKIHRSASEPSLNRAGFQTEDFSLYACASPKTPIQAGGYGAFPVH
pIC50: −log10 of the molar value.

[
  {
    "Query smiles": "O=C(CSc1nc2sc3c(c2c(=O)n1-c1ccc(Cl)cc1)CCCC3)NNC(=O)Nc1cccc(C(F)(F)F)c1",
    "Assayed system": "Serine/threonine-protein kinase B-raf (Homo sapiens, UniProt P15056)",
    "pIC50": 7.15
  }
]

###

Assayed system: Vascular endothelial growth factor receptor 3 (Homo sapiens, UniProt P35916)
Sequence (P35916 whole entry): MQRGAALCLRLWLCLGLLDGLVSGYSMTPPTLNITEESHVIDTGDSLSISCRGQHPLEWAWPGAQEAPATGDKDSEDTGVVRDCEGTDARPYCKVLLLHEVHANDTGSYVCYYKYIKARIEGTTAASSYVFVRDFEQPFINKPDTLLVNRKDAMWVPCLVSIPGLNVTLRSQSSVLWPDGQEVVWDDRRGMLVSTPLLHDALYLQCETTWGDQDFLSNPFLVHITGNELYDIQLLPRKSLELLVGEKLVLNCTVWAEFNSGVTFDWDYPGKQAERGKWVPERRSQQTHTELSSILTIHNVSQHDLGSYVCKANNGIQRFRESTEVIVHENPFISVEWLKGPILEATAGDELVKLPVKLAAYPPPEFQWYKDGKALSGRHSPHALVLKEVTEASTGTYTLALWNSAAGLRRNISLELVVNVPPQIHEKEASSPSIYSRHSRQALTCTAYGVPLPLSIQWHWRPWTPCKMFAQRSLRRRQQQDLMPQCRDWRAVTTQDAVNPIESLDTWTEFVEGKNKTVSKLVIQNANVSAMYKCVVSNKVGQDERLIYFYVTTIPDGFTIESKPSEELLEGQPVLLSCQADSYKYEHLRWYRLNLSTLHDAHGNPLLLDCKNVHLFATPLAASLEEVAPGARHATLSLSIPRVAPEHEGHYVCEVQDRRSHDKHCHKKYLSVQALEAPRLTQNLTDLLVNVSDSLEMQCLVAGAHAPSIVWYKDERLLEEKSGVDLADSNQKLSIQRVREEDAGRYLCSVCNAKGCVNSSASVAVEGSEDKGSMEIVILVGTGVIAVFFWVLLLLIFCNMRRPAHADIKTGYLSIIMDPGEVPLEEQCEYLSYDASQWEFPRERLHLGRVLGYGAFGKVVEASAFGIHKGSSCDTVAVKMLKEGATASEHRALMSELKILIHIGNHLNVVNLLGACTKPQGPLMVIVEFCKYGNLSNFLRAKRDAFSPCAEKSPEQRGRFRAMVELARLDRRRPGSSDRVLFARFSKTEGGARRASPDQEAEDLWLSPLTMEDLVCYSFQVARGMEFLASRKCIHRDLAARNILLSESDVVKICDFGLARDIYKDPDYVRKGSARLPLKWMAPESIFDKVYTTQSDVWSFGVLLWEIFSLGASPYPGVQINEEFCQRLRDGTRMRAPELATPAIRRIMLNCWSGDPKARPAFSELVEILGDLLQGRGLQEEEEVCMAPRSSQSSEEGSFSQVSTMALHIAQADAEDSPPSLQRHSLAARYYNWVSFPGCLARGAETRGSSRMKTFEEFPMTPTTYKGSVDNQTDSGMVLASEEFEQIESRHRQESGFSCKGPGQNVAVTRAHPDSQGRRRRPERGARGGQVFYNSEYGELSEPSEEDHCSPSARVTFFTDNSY
pIC50: −log10 of the molar value.
Reported metric: pIC50

[
  {
    "Query smiles": "Cc1c2ccc(Nc3ccnc(Nc4ccc(OCCCCCCC(=O)NO)cc4)n3)cc2nn1C",
    "Test value": 7.18
  },
  {
    "Query smiles": "Cc1c2ccc(Nc3ccnc(Nc4ccc(NC(=O)CCCCCCC(=O)NO)cc4)n3)cc2nn1C",
    "Test value": 7.27
  }
]

###

System: HepG2
Assay text: Antiproliferative activity against human HepG2 cells
Type: functional, cell-based
Reported metric: IC50 (µM)

[
  {
    "Query smiles": "COc1ccc(-c2cc(-c3ccc(C)cc3)nc(NN)n2)cc1",
    "Units of measure": "µM",
    "Test value": 18.3
  }
]
